# System: Wild type
# Assay Text: S. aureus survival, RN4220 and DeltatarO strains – OD600, teichoic acid synthesis inhibitors, primary screen (AID 463173)
# Cond: S. aureus RN4220 wild type/DeltatarO growth, OD600, 18 h, screened at 18.75 µg/mL (by protocol)
Out of some 52,000 compounds screened, about 1,700 (3.3%) were called active. Rule as the data show it: active = survival mostly below about 52% (no sharp cut-off); inactive = mostly above about 56%. Only a selection was taken, and actives are over-represented in it overall.
Give one outcome, nothing more. List: class 1 for active, class 0 for inactive

>  <Molecule>
COc1ccc(-c2noc(CN(C(=O)c3ccc(C)cc3C)C(C)C)n2)cc1

>  <Assay Target>
Wild type

>  <Assigned Label>
class 1

$$$$

Next up:
**Q:** Outcome? CCOC(=O)C1CCCN(C(=O)c2cc3c(Cl)nc4ccccc4c3s2)C1 (centres undefined)
**A:** class 0

----------
# Tested on: Wild type
# Assay Text: S. aureus survival, RN4220 and DeltatarO strains – OD600, teichoic acid synthesis inhibitors, primary screen (AID 463173)
# Cond: S. aureus RN4220 wild type/DeltatarO growth, OD600, 18 h, stronger effect = lower value, screened at 18.75 µg/mL (by protocol)
Hit rate of the full screen: of about 52,000 compounds, about 1,700 (3.3%) were called active. This excerpt belongs to a sample that is enriched for actives.
Mark each entry yes (1) if its survival sits below 70%, and no (0) for all others.

**Q:** Is survival of Cc1ccc2c(=O)cc(C(=O)Nc3nc4ccc(Cl)cc4s3)oc2c1 strictly below 70%?
**A:** yes (1)

**Q:** Is survival of N#Cc1c(-n2ncnc2-c2ccc(Br)cc2)sc2c1CCCCC2 strictly below 70%?
**A:** yes (1)

**Q:** Is survival of COc1ccc(-c2nnn(CC(=O)Nc3sc4c(c3C#N)CCCC4)n2)cc1 strictly below 70%?
**A:** no (0)

----------
# Tested on: Wild type
# Assay Text: S. aureus survival, RN4220 and DeltatarO strains – OD600, teichoic acid synthesis inhibitors, primary screen (AID 463173)
# Cond: S. aureus RN4220 wild type/DeltatarO growth, OD600, 18 h, screened at 18.75 µg/mL (by protocol)
The campaign covered roughly 52,000 compounds. About 1,700 (3.3%) were called active. No stated cut-off is given here; in the data, active means survival mostly below about 52% (no sharp cut-off); inactive means mostly above about 56%. Many of the other results were omitted from the sample, so actives are more common in it than they were.
Give one outcome, nothing more. List: T (active), F (inactive)

>  <Smiles>
CCOc1ccc(C(=O)NCc2ccc3c(c2)CCN3C(=O)c2ccccc2)cc1

>  <Assigned Label>
T

$$$$
>  <Smiles>
CCc1nnc2c3ccccc3nc(N3CCN(c4cc(Cl)ccc4C)CC3)n12

>  <Assigned Label>
F

$$$$
>  <Smiles>
CCOc1ccc(C(=O)NCc2ccc3c(c2)CCN3C(=O)c2ccc(Cl)cc2)cc1

>  <Assigned Label>
F

$$$$
>  <Smiles>
COc1ccc(C(=O)NCc2ccc3c(c2)CCN3C(=O)c2ccccc2)cc1

>  <Assigned Label>
F

$$$$
>  <Smiles>
COC(=O)c1c(C)oc2ccc(N(C(=O)c3ccncc3)S(=O)(=O)c3cc(C)c(C)cc3C)cc12

>  <Assigned Label>
F

$$$$
>  <Smiles>
Cc1cccc(C(=O)N2CCc3cc(CNC(=O)c4cc5ccccc5[nH]4)ccc32)c1

>  <Assigned Label>
F

$$$$

**Q:** Outcome? O=C(NCc1ccc2c(c1)CCN2C(=O)c1ccccc1)c1cc2ccccc2[nH]1
**A:** T

**Q:** Outcome? Cc1ccc(N2CCN(c3nc4ccc(C(=O)c5ccccc5)cc4n4cnnc34)CC2)c(C)c1
**A:** F

**Q:** Outcome? O=C(NCc1ccc2c(c1)CCN2C(=O)c1ccc(F)cc1)c1cc2ccccc2[nH]1
**A:** F

Data credit: PubChem BioAssay AID463173
